Reference source for all entries: patent US11230526B1

- target-or-test-system: human GPR40 (Homo sapiens, UniProt O14842)
- Sequence (O14842 whole entry): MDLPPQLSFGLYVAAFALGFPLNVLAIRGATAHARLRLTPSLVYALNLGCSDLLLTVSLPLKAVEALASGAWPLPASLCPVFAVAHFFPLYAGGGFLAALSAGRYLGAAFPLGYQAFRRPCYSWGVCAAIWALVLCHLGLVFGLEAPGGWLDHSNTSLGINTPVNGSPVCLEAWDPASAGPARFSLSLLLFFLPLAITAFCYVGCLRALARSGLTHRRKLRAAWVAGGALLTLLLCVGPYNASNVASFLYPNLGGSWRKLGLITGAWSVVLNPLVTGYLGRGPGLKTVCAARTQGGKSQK
- assay-protocol: GPR40 calcium flux assay, human GPR40
- setup-conditions: HEK293 cells stably expressing GPR40; table does not say human or rat
pEC50: −log10 of the molar value.
assay-endpoint: pEC50

molecule="CC1CCC(c2ccccc2)=C1COc1ccc(CCC(=O)O)cc1 (stereo not drawn) [Compound 366]" assay_endpoint=pEC50 value_comparator=< data_value=5.00
molecule="CSCCCCc1cc(CCC(=O)O)ccc1OCC1=C(c2ccc(Cl)cc2)CCC1 [Compound 198]" assay_endpoint=pEC50 value_comparator== data_value=5.67
molecule="O=C(O)CCc1ccc(OCC2=C(c3ccc(F)cc3)CC(F)(F)C2)c(Cl)c1 [Compound 203]" assay_endpoint=pEC50 value_comparator=< data_value=5.30
molecule="Cc1cc(OCC2=C(c3ccccc3)CCC2C)c(F)cc1CCC(=O)O (stereo not drawn) [Compound 338]" assay_endpoint=pEC50 value_comparator== data_value=5.54
molecule="Cc1cc(CCC(=O)O)cc(Cl)c1OCC1=C(c2ccc(F)cc2)CCC1 [Compound 236]" assay_endpoint=pEC50 value_comparator=< data_value=5.30
molecule="O=C(O)CCc1cc(F)c(OCC2=C(c3ccc(F)cc3F)CC(F)(F)C2)c(F)c1 [Compound 216]" assay_endpoint=pEC50 value_comparator=< data_value=5.30
molecule="Cc1ccc(C2=C(COc3ccc(CCC(=O)O)c(C(F)(F)F)c3)CCC2)cc1F [Compound 282]" assay_endpoint=pEC50 value_comparator== data_value=6.61
molecule="Cc1c(CCC(=O)O)ccc(OCC2=C(c3cccc(Cl)c3)CCC2)c1C [Compound 58]" assay_endpoint=pEC50 value_comparator=< data_value=5.00
molecule="COc1ccc(C2=C(COc3ccc(CCC(=O)O)c(C(F)(F)F)c3)CCC2)c(C)c1 [Compound 287]" assay_endpoint=pEC50 value_comparator== data_value=6.82
molecule="Cc1cc(OCC2=C(C3=CCCCC3)CCC2)c(F)cc1CCC(=O)O [Compound 352]" assay_endpoint=pEC50 value_comparator=< data_value=5.00
molecule="COc1cc(C)ccc1C1=C(COc2ccc(CCC(=O)O)cc2)CCC1 [Compound 255]" assay_endpoint=pEC50 value_comparator== data_value=5.89
molecule="Cc1c(CCC(=O)O)ccc(OCC2=C(c3ccc(S(C)(=O)=O)cc3)CCCC2)c1C [Compound 515]" assay_endpoint=pEC50 value_comparator=< data_value=5.30
molecule="Cc1cc(OCC2=C(c3ccccc3)C(C)CC2)c(F)cc1CCC(=O)O (stereo not drawn) [Compound 323]" assay_endpoint=pEC50 value_comparator== data_value=5.65
molecule="Cc1cc(OCC2=C(Cc3ccccc3)CCC2)c(F)cc1CCC(=O)O [Compound 314]" assay_endpoint=pEC50 value_comparator== data_value=6.34
molecule="O=C(O)CCc1ccc(OCC2=C(c3ccc(F)cc3)CCC(F)(F)C2)cc1 [Compound 499]" assay_endpoint=pEC50 value_comparator=< data_value=5.30
molecule="Cc1c(CCC(=O)O)ccc(OCC2=C(C3CCCC3)CCC2)c1C [Compound 432]" assay_endpoint=pEC50 value_comparator=< data_value=5.00
molecule="COC1CC(COc2c(F)cc(CCC(=O)O)cc2F)=C(c2ccc(Cl)cc2)C1 (stereo not drawn) [Compound 187]" assay_endpoint=pEC50 value_comparator== data_value=5.48
molecule="CC(C)CC1=C(COc2ccc(CCC(=O)O)cc2)CCC1 [Compound 384]" assay_endpoint=pEC50 value_comparator== data_value=6.20
